Cited source: paper PMC5309722

Substrate: C=CC1=C(C)/C(=C/c2[nH]c(/C=C3N=C(/C=C4\NC(=O)C(C)=C4C=C)C(C)=C\3CCC(=O)O)c(CCC(=O)O)c2C)NC1=O
protocol.description: steady-state kinetics, A450 bilirubin formation
Format: biochemical, Synechocystis sp. PCC 6803
condition.description: 100 μM NADPH, 100 mM citrate pH 5.75
Text: steady-state kinetics, A450 bilirubin formation on Syn BVR
assay.endpoint: Km (µM)
Write the value in µM as a bare number.

Q: Output measured Km for this item: Syn BVR (Synechocystis sp. PCC 6803 substr. Kazusa; R185A) (protein, full length, 328 residues; N-terminal His6 tag (pET15b), E. coli C41(DE3); tag cut with thrombin for crystals) MSENFAVATPVRVGIVGTGYAAQRRAEVFRGDRRSQLVSFWGNSEANTAKFADTFGVRPQQSWQALINDPEIDLVLIATINQLHGAIAEAALQAGKHVVLEYPLALTYAMGKKLQQLAREKGKLLHVEHIELLGGVHQAIRQNLGKIGEVFYARYSTIMGQNPAPQRWTYHHQQFGFPLVAALSAISRFTDLFGTVQQVDAQCRFWDQPNPEYFRACLATAYLQFNNGLKAEVIYGKGEVFHQNERIFTLHGDRGTLIFVGETGRLIQGQTETEITVGSRRGLFRQDTEAVLDYLTTGKPLYVDLEASLYALEVADLCAQACGYKVEN
A: 6.9

Q: State its Km for this protein: Syn BVR (Synechocystis sp. PCC 6803 substr. Kazusa) (protein, full length, 328 residues; N-terminal His6 tag (pET15b), E. coli C41(DE3); tag cut with thrombin for crystals) MSENFAVATPVRVGIVGTGYAAQRRAEVFRGDRRSQLVSFWGNSEANTAKFADTFGVRPQQSWQALINDPEIDLVLIATINQLHGAIAEAALQAGKHVVLEYPLALTYAMGKKLQQLAREKGKLLHVEHIELLGGVHQAIRQNLGKIGEVFYARYSTIMGQNPAPQRWTYHHQQFGFPLVAALSRISRFTDLFGTVQQVDAQCRFWDQPNPEYFRACLATAYLQFNNGLKAEVIYGKGEVFHQNERIFTLHGDRGTLIFVGETGRLIQGQTETEITVGSRRGLFRQDTEAVLDYLTTGKPLYVDLEASLYALEVADLCAQACGYKVEN
A: 1.8
